- system-tested: acetylcholine receptor
- protocol-summary: SPR, AchR immobilised on CM5 chip, peptide at 10 uM
Exercise: state measured Binding affinity (RU) for each of the binders provided.
// return numeric value only (unit: RU, not printed)

Endpoint output: Binding affinity (RU) of RRVIRR [6mer-1-446] . Value?
124

Endpoint output: Binding affinity (RU) of KKVQTR [6mer-1-1405] . Value?
148

Endpoint output: Binding affinity (RU) of KTHEK [5mer-1166] . Value?
32

Endpoint output: Binding affinity (RU) of KTPVR [5mer-887] . Value?
30

Endpoint output: Binding affinity (RU) of KRSFLR [6mer-1-414] . Value?
153

Endpoint output: Binding affinity (RU) of RKWRCK [6mer-1-435] . Value?
135

Endpoint output: Binding affinity (RU) of RKVLYR [6mer-1-421] . Value?
135

Endpoint output: Binding affinity (RU) of RYDMK [5mer-1155] . Value?
25

Values from patent US20250011363A1
